# Tested on: L1210 leukemia (ip)
# PROCEDURE SUMMARY: Antileukemic screen, L1210 tumour ip, drug ip qd 1-5
# Assay type: in vivo, mice (C3H/DBA2 F1 hybrids)
# Design: unit not given here
# CONDITIONS USED: Tumour L1210-ip, Strain F1, Schedule qd 1-5, drug ip; Table II
READOUT NAME: LD10

* COc1cc(NS(C)(=O)=O)ccc1Nc1c2ccc(Cl)cc2nc2c(C(=O)NCC(N)=O)cccc12 | 300
* CNC(=O)c1ccc2c(Nc3ccc(NS(C)(=O)=O)cc3OC)c3cccc(C)c3nc2c1 | 20
* CNC(=O)c1cccc2c(Nc3ccc(NS(C)(=O)=O)cc3OC)c3ccc(C)cc3nc12 | 12
* COc1cc(NS(C)(=O)=O)ccc1Nc1c2ccccc2nc2ccccc12 | 9
* COc1cc(NS(C)(=O)=O)ccc1Nc1c2ccc(C)cc2nc2c(C(=O)NCC(N)=O)cccc12 | 120
